Measured IC50 on CHK1 kinase (Homo sapiens) follows.
Sequence (O14757 whole entry): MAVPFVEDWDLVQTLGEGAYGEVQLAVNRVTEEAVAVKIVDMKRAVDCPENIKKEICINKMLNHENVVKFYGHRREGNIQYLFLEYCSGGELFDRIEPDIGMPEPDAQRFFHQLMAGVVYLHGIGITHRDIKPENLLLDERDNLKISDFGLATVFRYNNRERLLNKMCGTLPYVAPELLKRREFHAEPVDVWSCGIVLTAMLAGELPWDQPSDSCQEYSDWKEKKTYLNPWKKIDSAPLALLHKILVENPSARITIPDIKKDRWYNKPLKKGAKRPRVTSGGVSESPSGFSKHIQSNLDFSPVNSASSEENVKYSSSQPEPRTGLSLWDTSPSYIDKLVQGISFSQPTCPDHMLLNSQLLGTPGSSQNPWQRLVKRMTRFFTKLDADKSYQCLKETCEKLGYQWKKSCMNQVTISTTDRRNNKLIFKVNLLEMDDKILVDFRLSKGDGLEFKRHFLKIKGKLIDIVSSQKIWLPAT

# molecule, result
records = [
    ("O=c1c(NCc2cccc(O)c2)c(Nc2ccc3c(c2)NCC3)c1=O", "> 1000 nM"),
    ("CCOC(=O)c1cc2cc(Nc3c(NCc4cccc(O)c4)c(=O)c3=O)ccc2[nH]1", "> 1000 nM"),
    ("CN(C)CCNC(=O)CC(Nc1c(Nc2ccc3[nH]cnc3c2)c(=O)c1=O)c1cccc(O)c1 (stereo not shown)", "> 1000 nM"),
]

Task item: Form field - read-out: IC50; system: CHK1 kinase (Homo sapiens); submitted item: `COCCOc1cccc(CNc2c(Nc3ccc4[nH]cnc4c3)c(=O)c2=O)c1`
Reply: > 1000 nM

Data credit: patent US20080234266A1
